test system: TPA-induced ear edema; assay: TPA ear edema model; settings: topical 1.0%, formulated in 95% ethanol; ear biopsy weight six hours after TPA
Ends that are not written are not given here.
Recorded Topical Dose (% change vs. vehicle) 1.0% for the following substances
measured attribute: Topical Dose (% change vs. vehicle) 1.0% (%)

> print(dat)
                                  substance      target.under.test  result.number
1  H-LRFLKW(Aib)WRFLKL-CN [Peptide 11J105CN]  TPA-induced ear edema            −51
2  L R F L K W A F R L W K L (LRFLKWAFRLWKL-{CN}) [Peptide 11J45CN]  TPA-induced ear edema            −69
3       H-GWRFLKLAWRFLKL-OH [Peptide 11J97]  TPA-induced ear edema            −29
4  H-ILRWVWRIL-CN (H-ILRWVWRIL-{CN}) [Peptide 11J148CN]  TPA-induced ear edema            −74
5    H-GWRFLKLAWRFLKLRR-OH [Peptide 11J136]  TPA-induced ear edema            −54
6  RLWVWWVWRRK-NH2 [Peptide 11F12CN, R L W V W W V W R R K]  TPA-induced ear edema            −56
7  F R F F K P K F R F P K F (FRFFKPKFRFPKF-{CN}) [Peptide 11J33CN]  TPA-induced ear edema            −52
8  H-RILRWVWRILR-CN (H-RILRWVWRILR-{CN}) [Peptide 11J115CN]  TPA-induced ear edema            −57
